# Ki per entry
# Subject Of Test: CB2 (Homo sapiens)
# Construct: expressed in transfected cells; host or cells: CHO-K1 (membranes)
# Sequence (P34972 whole entry): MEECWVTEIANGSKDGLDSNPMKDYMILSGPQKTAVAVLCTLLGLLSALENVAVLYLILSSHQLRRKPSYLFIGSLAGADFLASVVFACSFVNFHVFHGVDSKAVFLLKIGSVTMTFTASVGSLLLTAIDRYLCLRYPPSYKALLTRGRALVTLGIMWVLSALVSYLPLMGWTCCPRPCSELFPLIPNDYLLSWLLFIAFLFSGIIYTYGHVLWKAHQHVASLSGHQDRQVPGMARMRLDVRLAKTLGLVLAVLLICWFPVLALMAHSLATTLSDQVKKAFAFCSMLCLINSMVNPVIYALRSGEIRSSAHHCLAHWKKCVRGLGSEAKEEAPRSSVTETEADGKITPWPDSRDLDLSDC
# Method: Displacement of [3H]CP55940 in membranes of CHO-K1 cells over-expressing CB2
# Assay type: binding
# Condition Notes: Table 4; read-out: Ki (nM) v. [3H] CP55940 at CB2
// note: answer is a bare numeric in nM

- Molecule: "Cc1c(C(=O)N2CCC(NC(=O)OC(C)(C)C)(c3ccccc3)CC2)nn(-c2ccc(Cl)cc2Cl)c1-c1ccc(Cl)cc1 [Cl, phenyl, NHC(O)O(t-butyl)]"
  Ki (nM): 2110

Shift focus to the following entry.
So for Cc1c(C(=O)N2CCC(C(N)=O)(c3ccccc3)CC2)nn(-c2ccc(Cl)cc2Cl)c1-c1ccc(Cl)cc1 [Cl, phenyl, C(O)NH2] , the logged Ki turned out to be 5500

* * *

# Subject Of Test: CB1 (Homo sapiens, UniProt P21554)
# Construct: expressed in transfected cells; host or cells: CHO-K1 (membranes)
# Sequence (P21554 whole entry): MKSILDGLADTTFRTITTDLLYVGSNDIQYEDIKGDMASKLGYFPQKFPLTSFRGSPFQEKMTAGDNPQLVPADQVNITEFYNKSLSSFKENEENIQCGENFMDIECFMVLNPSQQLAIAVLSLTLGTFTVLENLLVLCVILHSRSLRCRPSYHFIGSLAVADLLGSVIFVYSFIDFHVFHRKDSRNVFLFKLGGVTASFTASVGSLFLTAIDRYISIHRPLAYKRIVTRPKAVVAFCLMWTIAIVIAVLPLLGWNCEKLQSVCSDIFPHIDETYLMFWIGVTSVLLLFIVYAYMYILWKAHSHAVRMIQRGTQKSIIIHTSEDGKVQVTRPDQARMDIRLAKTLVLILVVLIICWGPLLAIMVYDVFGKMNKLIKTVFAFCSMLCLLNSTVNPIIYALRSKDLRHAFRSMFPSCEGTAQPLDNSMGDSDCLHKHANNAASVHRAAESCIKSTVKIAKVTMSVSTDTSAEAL
# Method: Displacement of [3H]CP55940 in membranes of CHO-K1 cells over-expressing CB1
# Format: binding
# Condition Notes: Table 5; read-out: Ki (nM) v. [3H] CP55940 at CB1
# Ki per entry
// note: answer is a bare numeric in nM

- Line Notation: "CCOC(=O)N1CCC(NC(=O)c2nn(-c3ccc(Cl)cc3Cl)c(-c3ccc(Cl)cc3)c2C)CC1"
  Subject Of Test: "CB1 (Homo sapiens, UniProt P21554)"
  U: "nM"
  Readout Number: 14.6
- Line Notation: "CCCCNC(=O)N1CCC(NC(=O)c2nn(-c3ccc(Cl)cc3Cl)c(-c3ccc(Cl)cc3)c2C)CC1"
  Subject Of Test: "CB1 (Homo sapiens, UniProt P21554)"
  U: "nM"
  Readout Number: 149
- Line Notation: "CCNC(=O)N1CCC(NC(=O)c2nn(-c3ccc(Cl)cc3Cl)c(-c3ccc(Cl)cc3)c2C)CC1"
  Subject Of Test: "CB1 (Homo sapiens, UniProt P21554)"
  U: "nM"
  Readout Number: 167

Shift focus to the following entry.
So for Cc1c(C(=O)NC2CCN(C(=O)NC(C)C)CC2)nn(-c2ccc(Cl)cc2Cl)c1-c1ccc(Cl)cc1 , the logged Ki turned out to be 97.9

* * *

# Subject Of Test: CB1 (Homo sapiens, UniProt P21554)
# Construct: expressed in transfected cells; host or cells: CHO-K1 (membranes)
# Method: CB1 activated Gαq16-coupled intracellular calcium mobilization assay in CHO-K1 cells (apparent affinity Ke)
# Format: cell-based
# Condition Notes: Table 4; calcium mobilization; read-out: Ke (nM) at CB1
Outcome Measure: log10 of Kb (log10 of the value in nM)
In our notation, the value equals log10 of Kb in nM.

# example entries with known answers
- Line Notation: "CC(=O)NC1(c2ccccc2)CCN(C(=O)c2nn(-c3ccc(Cl)cc3Cl)c(-c3ccc(Cl)cc3)c2C)CC1"
  Subject Of Test: "CB1 (Homo sapiens, UniProt P21554)"
  log10 of Kb: 2.30
- Line Notation: "Cc1c(C(=O)N2CCC(NS(C)(=O)=O)CC2)nn(-c2ccc(Cl)cc2Cl)c1-c1ccc(Cl)cc1"
  Subject Of Test: "CB1 (Homo sapiens, UniProt P21554)"
  log10 of Kb: 2.16
- Line Notation: "CCCCNC(=O)NC1CCN(C(=O)c2nn(-c3ccc(Cl)cc3Cl)c(-c3ccc(Cl)cc3)c2C)CC1"
  Subject Of Test: "CB1 (Homo sapiens, UniProt P21554)"
  log10 of Kb: 2.60
- Line Notation: "Cc1c(C(=O)N2CCC(N)CC2)nn(-c2ccc(Cl)cc2Cl)c1-c1ccc(Cl)cc1"
  Subject Of Test: "CB1 (Homo sapiens, UniProt P21554)"
  log10 of Kb: 3.28
- Line Notation: "Cc1c(C(=O)N2CCC(NC(=O)NC(C)C)CC2)nn(-c2ccc(Cl)cc2Cl)c1-c1ccc(Cl)cc1"
  Subject Of Test: "CB1 (Homo sapiens, UniProt P21554)"
  log10 of Kb: 2.78

So for Cc1c(C(=O)N2CCC(O)(c3ccccc3)CC2)nn(-c2ccc(Cl)cc2Cl)c1-c1ccc(N(C)C)cc1 , the logged log10 of Kb turned out to be 2.83

So for CCCNC(=O)NC1CCN(C(=O)c2nn(-c3ccc(Cl)cc3Cl)c(-c3ccc(Cl)cc3)c2C)CC1 , the logged log10 of Kb turned out to be 2.74

So for CCCCNC(=O)NC1(c2ccccc2)CCN(C(=O)c2nn(-c3ccc(Cl)cc3Cl)c(-c3ccc(Cl)cc3)c2C)CC1 , the logged log10 of Kb turned out to be -0.39

So for Cc1c(C(=O)N2CCC(O)(c3ccccc3)CC2)nn(-c2ccc(Cl)cc2Cl)c1-c1ccc(C#N)cc1 , the logged log10 of Kb turned out to be 2.96

So for Cc1c(C(=O)N2CCC(N)(c3ccccc3)CC2)nn(-c2ccc(Cl)cc2Cl)c1-c1ccc(Cl)cc1 , the logged log10 of Kb turned out to be 2.69

So for Cc1c(C(=O)N2CCC(NC(=O)OC(C)(C)C)CC2)nn(-c2ccc(Cl)cc2Cl)c1-c1ccc(Cl)cc1 , the logged log10 of Kb turned out to be 2.32
